Biological target: Platelet-derived growth factor receptor beta (Homo sapiens); note: in the data inactive means no Kd found up to 30 µM
Sequence (P09619 whole entry): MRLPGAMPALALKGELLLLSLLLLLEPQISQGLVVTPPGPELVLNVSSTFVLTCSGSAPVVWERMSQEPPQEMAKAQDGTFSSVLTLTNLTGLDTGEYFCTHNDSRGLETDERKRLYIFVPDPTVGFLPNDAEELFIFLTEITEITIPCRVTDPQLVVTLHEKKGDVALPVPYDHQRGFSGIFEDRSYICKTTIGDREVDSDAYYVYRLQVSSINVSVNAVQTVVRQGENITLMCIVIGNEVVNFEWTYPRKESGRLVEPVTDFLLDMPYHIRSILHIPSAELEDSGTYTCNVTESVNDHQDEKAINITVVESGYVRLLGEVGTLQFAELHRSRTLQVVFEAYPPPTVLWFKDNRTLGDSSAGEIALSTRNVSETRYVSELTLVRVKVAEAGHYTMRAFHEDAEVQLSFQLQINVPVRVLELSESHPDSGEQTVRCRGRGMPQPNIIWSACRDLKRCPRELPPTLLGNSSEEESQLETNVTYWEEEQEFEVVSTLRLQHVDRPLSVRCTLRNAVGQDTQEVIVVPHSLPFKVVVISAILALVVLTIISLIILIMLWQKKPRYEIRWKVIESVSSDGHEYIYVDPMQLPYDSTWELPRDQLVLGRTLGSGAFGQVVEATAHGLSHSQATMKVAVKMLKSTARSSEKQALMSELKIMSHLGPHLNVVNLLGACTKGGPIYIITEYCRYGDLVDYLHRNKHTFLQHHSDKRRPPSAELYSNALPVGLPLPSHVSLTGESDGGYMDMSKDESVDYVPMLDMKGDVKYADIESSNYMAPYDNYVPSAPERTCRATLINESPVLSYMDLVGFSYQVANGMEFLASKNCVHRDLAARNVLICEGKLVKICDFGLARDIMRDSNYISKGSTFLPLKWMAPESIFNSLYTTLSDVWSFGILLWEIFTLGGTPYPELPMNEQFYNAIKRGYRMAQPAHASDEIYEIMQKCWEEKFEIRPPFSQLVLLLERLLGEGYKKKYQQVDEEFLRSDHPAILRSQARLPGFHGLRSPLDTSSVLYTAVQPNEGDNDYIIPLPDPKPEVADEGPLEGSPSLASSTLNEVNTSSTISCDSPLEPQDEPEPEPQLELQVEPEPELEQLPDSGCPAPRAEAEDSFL
Activity calls are given as the source filed them.
# output must be one of 1 for active, 0 for inactive

In: Test call, this compound: O=S(=O)(c1cccc2cnccc12)N1CCCNCC1
Out: 0

In: Hi team, can someone confirm the assay call for COc1cc2ncnc(Nc3ccc(O)cc3)c2cc1OC ?
Out: 0

In: State the result this test recorded for Cc1ccc(C(=O)Nc2ccc(Oc3cc4cnn(C)c4cc3-c3cn[nH]c3)c(F)c2)c(=O)n1-c1ccc(F)cc1 .
Out: 0

In: # fetch the recorded call for C[C@]1(O)C[C@@H](c2nc(-c3ccc4ccc(-c5ccccc5)nc4c3)c3c(N)nccn32)C1 here
Out: 0

---

Molecular target: Discoidin domain-containing receptor 2 (Homo sapiens); note: in the data inactive means no Kd found up to 30 µM
Sequence (Q16832 whole entry): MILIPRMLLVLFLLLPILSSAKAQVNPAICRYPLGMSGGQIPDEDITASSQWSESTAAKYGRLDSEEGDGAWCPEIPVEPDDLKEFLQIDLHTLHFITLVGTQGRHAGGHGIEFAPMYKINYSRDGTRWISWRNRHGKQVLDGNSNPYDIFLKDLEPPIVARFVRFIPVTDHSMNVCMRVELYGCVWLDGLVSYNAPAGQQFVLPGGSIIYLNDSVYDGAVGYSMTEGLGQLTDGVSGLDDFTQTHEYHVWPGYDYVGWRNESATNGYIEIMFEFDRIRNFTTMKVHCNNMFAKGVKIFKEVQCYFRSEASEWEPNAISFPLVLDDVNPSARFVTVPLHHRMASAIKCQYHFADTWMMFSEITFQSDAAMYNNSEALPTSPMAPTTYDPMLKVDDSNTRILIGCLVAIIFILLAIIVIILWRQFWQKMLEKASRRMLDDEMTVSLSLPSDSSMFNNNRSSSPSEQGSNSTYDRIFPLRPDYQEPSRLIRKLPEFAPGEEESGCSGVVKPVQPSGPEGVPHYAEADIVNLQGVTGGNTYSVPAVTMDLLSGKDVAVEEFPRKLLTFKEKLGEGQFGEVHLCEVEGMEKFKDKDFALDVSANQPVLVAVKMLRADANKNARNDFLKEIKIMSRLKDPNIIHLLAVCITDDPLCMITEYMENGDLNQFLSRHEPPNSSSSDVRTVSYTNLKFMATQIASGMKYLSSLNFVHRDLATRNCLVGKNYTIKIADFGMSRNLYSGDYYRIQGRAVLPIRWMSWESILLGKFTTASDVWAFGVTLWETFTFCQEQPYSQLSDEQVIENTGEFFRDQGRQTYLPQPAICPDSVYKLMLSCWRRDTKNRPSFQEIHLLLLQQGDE
Activity calls are given as the source filed them.
Form entry, call: pick from active, inactive

In: Dear colleague, could you share the recorded outcome for COc1ccc(-c2ccc3ncc4c(c3c2)n(-c2ccc(N3CCNCC3)c(C(F)(F)F)c2)c(=O)n4C)cn1 [BGT-226 FREE BASE] when you have a moment?
Out: inactive

---

Target: Serine/threonine-protein kinase 26 (Homo sapiens, UniProt Q9P289); note: in the data inactive means no Kd found up to 30 µM
Sequence (Q9P289 whole entry): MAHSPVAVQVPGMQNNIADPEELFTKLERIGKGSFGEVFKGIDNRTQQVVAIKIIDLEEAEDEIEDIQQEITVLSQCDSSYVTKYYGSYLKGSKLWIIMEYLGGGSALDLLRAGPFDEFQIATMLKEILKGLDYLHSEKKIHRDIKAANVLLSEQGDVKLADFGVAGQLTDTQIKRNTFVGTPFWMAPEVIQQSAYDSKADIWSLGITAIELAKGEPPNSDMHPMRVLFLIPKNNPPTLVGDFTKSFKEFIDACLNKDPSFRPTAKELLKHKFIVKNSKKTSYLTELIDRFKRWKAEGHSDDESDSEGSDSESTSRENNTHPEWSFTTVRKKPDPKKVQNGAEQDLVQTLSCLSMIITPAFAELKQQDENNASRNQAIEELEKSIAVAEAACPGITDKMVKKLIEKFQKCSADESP
Active and inactive are the calls of the source.
Could you please pick one outcome from this set? TRUE = active, FALSE = inactive

Here's what some known entries look like.
CCc1nc(C(N)=O)c(Nc2ccc(N3CCC(N4CCN(C)CC4)CC3)c(OC)c2)nc1NC1CCOCC1 [GILTERITINIB] : TRUE
Cc1ccc(C(=O)Nc2ccc(Oc3cc4cnn(C)c4cc3-c3cn[nH]c3)c(F)c2)c(=O)n1-c1ccc(F)cc1 [MERESTINIB] : FALSE
COc1cc(F)c(F)c(Nc2ccc(I)cc2F)c1NS(=O)(=O)C1(C[C@H](O)CO)CC1 [REFAMETINIB] : FALSE
COc1cc2nccc(Oc3ccc(NC(=O)C4(C(=O)Nc5ccc(F)cc5)CC4)cc3)c2cc1OC [CABOZANTINIB] : FALSE
COCCN1CCN(Cc2ccc(-c3n[nH]c4c3C(=O)c3c(NC(=O)NN5CCOCC5)cccc3-4)cc2)CC1 [RGB-286638] : TRUE

In: Lab log entry: COc1cccc(Nc2ncnn3ccc(CN4CC[C@@H](N)[C@H](O)C4)c23)c1 [BMS-690514] — outcome as called in the assay?
Out: FALSE

In: Status in this test for CC1(COc2ccc3c(c2)ncn3-c2ccc3cccc(N4CCC(N)CC4)c3n2)COC1 [CRENOLANIB] ?
Out: TRUE

In: Give the logged outcome of this assay for the following molecule: CC[C@@](C)(Nc1ccnc(-c2c[nH]c3ncccc23)n1)C(=O)NCC(F)(F)F [DECERNOTINIB]
Out: TRUE

In: Could you kindly confirm the outcome this assay logged for COc1cc(Nc2ncc(F)c(Nc3ccc4c(n3)N(COP(=O)(O)O)C(=O)C(C)(C)O4)n2)cc(OC)c1OC [FOSTAMATINIB] ?
Out: FALSE

In: Any idea what this test logged for Cc1cc(Nc2nc(N[C@@H](C)c3ncc(F)cn3)ncc2Cl)n[nH]1 [AZD-1480] ?
Out: FALSE

In: Name the outcome recorded for CCN1CCN(Cc2ccc(Nc3ncc(F)c(-c4cc(F)c5nc(C)n(C(C)C)c5c4)n3)nc2)CC1 [ABEMACICLIB] in the assay.
Out: FALSE

In: Hi, do you know how C[C@]1(O)C[C@@H](c2nc(-c3ccc4ccc(-c5ccccc5)nc4c3)c3c(N)nccn32)C1 [LINSITINIB] came out in this test?
Out: FALSE

In: Returns: the outcome recorded for COc1cc2ncnc(Nc3ccc(O)cc3)c2cc1OC [WHI-P131] in this assay.
Out: FALSE

In: Look up the recorded call for NC(=O)c1ccc(N(C(N)=O)c2c(F)cccc2F)nc1-c1ccc(F)cc1F [VX-702] in this test.
Out: FALSE
